5-HT2C % inhibition overview
measured.on: recombinant human 5-HT2C receptor (Homo sapiens, UniProt P28335)
Construct: expressed in transfected cells; host or cells: CHO-K1
Sequence (P28335 33-458): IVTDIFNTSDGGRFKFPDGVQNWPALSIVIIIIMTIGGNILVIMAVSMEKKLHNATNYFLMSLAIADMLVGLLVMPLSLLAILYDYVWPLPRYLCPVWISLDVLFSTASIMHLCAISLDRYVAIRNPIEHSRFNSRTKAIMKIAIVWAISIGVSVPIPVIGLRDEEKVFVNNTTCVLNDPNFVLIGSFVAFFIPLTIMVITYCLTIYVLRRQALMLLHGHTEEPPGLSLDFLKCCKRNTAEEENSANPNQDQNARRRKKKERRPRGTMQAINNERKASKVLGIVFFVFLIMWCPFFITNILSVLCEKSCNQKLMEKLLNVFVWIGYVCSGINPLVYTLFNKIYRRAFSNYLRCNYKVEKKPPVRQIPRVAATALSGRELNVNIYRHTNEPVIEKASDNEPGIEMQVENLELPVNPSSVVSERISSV
procedure.text: radioligand binding to serotonin receptor 5-HT2C ([3H] Mesulergine)
applied.conditions: 10 μM ligand
observable: 5-HT2C % inhibition

1) CN1CCc2c(c3ccccc3n2Cc2ccccc2)C1.Cl [1.9(1)•HCl] :: 97%
2) CN1CCc2c(c3cc(F)ccc3n2CC(O)c2ccccc2)C1 (centres unmarked) [1.1.2(1-9)] :: 89%
3) CN1CCc2c(c3cc(F)ccc3n2C#Cc2ccccc2)C1 [1.1(2)] :: 100%
4) Cc1ccc2c(c1)c1c(n2CCc2ccccn2)CCCN(C)C1 [1.2.2(2-2)] :: 51%
5) Cc1ccc2c(c1)c1c(n2CC(O)c2ccccc2)CCN(C)C1 (centres unmarked) [1.1.2(1-10)] :: 96%

* * *

measured.on: human H2 receptor (Homo sapiens, UniProt P25021)
Construct: expressed in transfected cells; host or cells: CHO-K1
Sequence (P25021 whole entry): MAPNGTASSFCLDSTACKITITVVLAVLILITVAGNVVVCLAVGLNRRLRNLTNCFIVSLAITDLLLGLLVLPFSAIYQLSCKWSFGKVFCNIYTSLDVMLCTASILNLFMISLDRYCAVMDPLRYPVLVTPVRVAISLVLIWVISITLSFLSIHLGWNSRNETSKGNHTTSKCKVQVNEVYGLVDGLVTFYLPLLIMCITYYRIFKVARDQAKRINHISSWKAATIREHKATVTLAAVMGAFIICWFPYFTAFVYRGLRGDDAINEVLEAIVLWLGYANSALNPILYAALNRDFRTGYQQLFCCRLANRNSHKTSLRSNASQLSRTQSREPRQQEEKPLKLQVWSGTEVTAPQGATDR
procedure.text: radioligand binding to histamine receptor H2 ([125I] Aminopotentidine)
applied.conditions: 10 μM ligand
In this section, each of the molecules is paired with its reported Histamine receptor H2, % inhibition.
observable: Histamine receptor H2, % inhibition

1) Cc1ccc(S(=O)(=O)n2c3c(c4cc(C)ccc42)CN(C)CCC3)cc1.Cl [1.8.1(3)•HCl] :: 82%
2) Cc1ccc2c(c1)[C@@H]1CN(C)CCC[C@@H]1N2CCc1ccc(C)nc1.Cl.Cl.Cl (relative stereo) [1.6.1(2)•3HCl] :: 66%
3) Cc1ccc2c(c1)[C@H]1CN(C)CCC[C@@H]1N2CCc1ccc(C)nc1 (relative stereo) :: 76%
4) Cc1ccc2c(c1)[C@H]1CN(C)CCC[C@@H]1N2CCc1cccnc1 [1.6.2(10)•3HCl] :: 69%

* * *

measured.on: recombinant human 5-HT1A (Homo sapiens, UniProt P08908)
Construct: expressed in transfected cells; host or cells: CHO
Sequence (P08908 whole entry): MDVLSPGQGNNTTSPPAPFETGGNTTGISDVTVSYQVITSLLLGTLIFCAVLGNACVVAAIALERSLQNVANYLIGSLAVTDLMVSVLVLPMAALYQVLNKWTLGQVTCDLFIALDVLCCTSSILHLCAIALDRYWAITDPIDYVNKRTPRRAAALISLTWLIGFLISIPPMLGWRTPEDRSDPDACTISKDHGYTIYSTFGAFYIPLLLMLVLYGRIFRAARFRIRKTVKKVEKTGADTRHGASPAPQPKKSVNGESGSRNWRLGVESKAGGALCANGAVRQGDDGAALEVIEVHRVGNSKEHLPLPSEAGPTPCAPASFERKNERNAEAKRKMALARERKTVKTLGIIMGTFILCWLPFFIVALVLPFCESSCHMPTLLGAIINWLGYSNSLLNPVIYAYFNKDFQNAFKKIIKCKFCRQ
procedure.text: radioligand binding to serotonin receptor 5-HT1A ([3H] 8-OH-DPAT)
applied.conditions: 10 μM ligand
Description: J Pharmacol Exp Ther. 306(1): 301-309, 2003]. […] Metergoline is used as positive control.
observable: 5-HT1A % inhibition (%)

1) Cc1ccc2c(c1)[C@@H]1CN(C)CCC[C@@H]1N2CCc1ccc(C)nc1.Cl.Cl.Cl (relative stereo) [1.6.1(2)•3HCl] :: −9
2) CN1CCc2c(c3cc(F)ccc3n2CCCc2ccccc2)C1.Cl [1.3.3(8)•HCl] :: −4
3) Cc1ccc2c(c1)c1c(n2/C=C\c2ccccc2)CCN(C)C1 :: 93
4) Cc1ccc2c(c1)c1c(n2CCc2ccc(F)cc2)CCN(C)C1.Cl [1.1.2(1-16)•HCl] :: 37
